- test-system: LRP1 (Homo sapiens, UniProt Q07954)
- assay-info: biolayer interferometry (BLI) binding of IETP2 to LRP1
- measurement-conditions: kinetic analysis, read-out: dissociation constant (KD) of IETP2 binding to LRP1
Where no end group is shown, it is not given here.
recorded-endpoint: Kd (nM)
Give bare numbers, in nM.

q: Dear colleague, please send me the reported Kd for TFYGGRPKRNNFLRGIRSRGD [IETP2] when you can.
a: 738
